Data provenance: patent US20250304677A1

STUDY TARGET: T1, mouse folate receptor alpha (mFRα), recombinant protein (mouse, UniProt P35846 25-232)
T1 construct: Bought recombinant proteins (e.g. biotinylated, Acro Biosystems FO1-M82E9); also called mFOLR1; Ms FOLR1
T1 sequence (P35846 25-232 limits assumed): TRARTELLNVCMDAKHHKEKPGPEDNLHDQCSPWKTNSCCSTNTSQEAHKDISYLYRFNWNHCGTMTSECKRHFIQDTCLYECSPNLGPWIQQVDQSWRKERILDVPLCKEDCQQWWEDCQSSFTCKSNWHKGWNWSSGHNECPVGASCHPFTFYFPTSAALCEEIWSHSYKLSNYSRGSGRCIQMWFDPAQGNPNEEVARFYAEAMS
ASSAY NAME: ELISA on mouse FRα, anti-VHH detection
RESULT TYPE: EC50 (read off the curve)

INSERT INTO results (binder, val) VALUES
  ('P01500005: 2MFR67(Q1E, Q5V, Q108L)-HIS6 (VHH, Entry includes the tag; also called 2MFR67 (P01500005); P0150005) VHH: EVQLVESGGGLVQAGGSLRLSCAASGSGFSGMIMGWYRQAPGKQRELVATVTSHGTTNYADSVKGRFTISREDSKNTVLLQMNSLKPEDTAVYYCNAHFPGIYWGKGTLVTVSS', '~3 nM'),
  ('P01500004: 2HF042(Q1E, Q5V, Q108L)-HIS6 (VHH, Entry includes the tag; also called 2HFO42 (P01500004); Nb42) VHH: EVQLVESGGGLVQAGGSLRLSCAASGSGFSGMIMGWYRQVPGKQRELVATVTSHGTTNYADSVKGRFTISRDNAKNTVLLQMNSLKPEDTAVYYCNAHFPGIYWGKGTLVTVSS', '~4 nM'),
  ('P01500001 = humanised variant 1 (h1) 2HFO42-His6: 2HF042(Q1E, Q5V, A14P, V40A, L79Y, K83R, Q108L)-HIS6 (VHH, Entry includes the tag; also called P0150001; humanised 2HFO42) VHH: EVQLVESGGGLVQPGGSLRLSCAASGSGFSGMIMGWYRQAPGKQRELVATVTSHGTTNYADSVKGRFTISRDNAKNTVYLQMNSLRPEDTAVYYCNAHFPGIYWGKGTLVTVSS', '~4 nM');

Here's the next entry for you.
# query: EC50 (read off the curve) of entry P01500002 = h2 variant 2HFO42: 2HF042(Q1E, Q5V, A14P, V40A, L79Y, K83R, K105Q, Q108L)-HIS6 (VHH, Entry includes the tag) VHH: EVQLVESGGGLVQPGGSLRLSCAASGSGFSGMIMGWYRQAPGKQRELVATVTSHGTTNYADSVKGRFTISRDNAKNTVYLQMNSLRPEDTAVYYCNAHFPGIYWGQGTLVTVSS ~5 nM
